B1: TPR t1 (parent)
chain: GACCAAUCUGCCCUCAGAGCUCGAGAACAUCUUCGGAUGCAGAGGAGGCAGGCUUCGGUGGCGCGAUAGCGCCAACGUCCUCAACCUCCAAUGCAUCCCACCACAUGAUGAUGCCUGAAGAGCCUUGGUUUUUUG

variants of: B1; test: polymerase ribozyme fitness, log enrichment relative to wild type (log ratio); higher = more active; in vitro selection for triplet polymerase activity
polymerase ribozyme fitness (log ratio) values, listed per item
Answer as a number with no unit attached.

Examples with answers:
> print(dat)
              sequence.change  reported
 1  C20G G36A A43C U96G G117C     -5.42
 2                   U9G G39U  -0.00423
 3   A2C C12G A46C C72U G113U     -7.24
 4                 G69A U131G     -3.12
 5                 A83C G135U    -0.881
 6                   U9G G61C     -1.59
 7       A27U G44U C56A U133A     -4.31
 8         A6C G42U G63C C79U     -2.06
 9             C11A G47C C72G     -3.64
10  U7C U87C U92G G122A C123U     -1.22

Requested read-out: polymerase ribozyme fitness (log ratio). Entry: A5U A121U 1.1

Requested read-out: polymerase ribozyme fitness (log ratio). Entry: G42A G57U G122U C123U -2.35

Requested read-out: polymerase ribozyme fitness (log ratio). Entry: C70U C79U 0.361

Requested read-out: polymerase ribozyme fitness (log ratio). Entry: G36C A91C -1.87

Requested read-out: polymerase ribozyme fitness (log ratio). Entry: G48U U59C C86G -2.19

Requested read-out: polymerase ribozyme fitness (log ratio). Entry: C8U A103U C115G -5.83

Requested read-out: polymerase ribozyme fitness (log ratio). Entry: C3U C88A -1.53

Requested read-out: polymerase ribozyme fitness (log ratio). Entry: C12G G36C G58A -1.29
